- Tested on: HOP-62 NSCLC
- ASSAY_COMMENT: NCI tumour cell line growth inhibition, 48 h

COMPOUND: O=C(O)c1ccc(C(O)(c2ccccc2)c2ccccc2)cc1
TGI: > 100 µM
//
COMPOUND: O=C(C=P(c1ccccc1)(c1ccccc1)c1ccccc1)CCl
TGI: 7.93 µM
//
COMPOUND: O=C(O)c1ccccc1CC1Cc2cc3c(cc2C1)CCC3
TGI: > 100 µM
//
COMPOUND: COc1cc2oc(-c3ccccc3)cc(=O)c2c(O)c1C
TGI: > 100 µM
//
COMPOUND: C/C=C(/C)C(=O)O[C@H]1[C@H]2[C@@H]([C@@H](OC(C)=O)[C@H](C)C(=O)[C@@]34C[C@@H](C)C(=O)[C@]3(/C=C(\C)[C@H]1OC(C)=O)O4)C2(C)C
TGI: 12 µM
//
COMPOUND: Cc1[nH]c(=O)[nH]c(=O)c1/C=C/C(=O)NC(CO)CS(=O)CS(C)=O (stereo unspecified)
TGI: 94.5 µM
//
COMPOUND: C#Cc1cccc(Nc2ncnc3ccc(OCCCCNCCS(C)(=O)=O)cc23)c1
TGI: > 25 µM
//
COMPOUND: CSc1nn(C)cc2ncnc1-2
TGI: > 100 µM
//
COMPOUND: O=C(OCCCl)C1OC(n2cc(F)c(=O)[nH]c2=O)CC1O (stereo unspecified)
TGI: > 100 µM
//
COMPOUND: Cc1ccc(S(=O)(=O)N2CCN(C=S)CC2)cc1
TGI: > 100 µM
//
COMPOUND: c1ccncc1
TGI: > 100 µM
